experiment: collision cross section of modified peptide (TIMS, N2, iRT-aligned); higher = larger / more extended gas-phase ion; conditions: charge state: 2; modification: Methyl (R)
parameter measured: collision cross section (Å²)
Provide the reading as a plain figure in Å².

Known collision cross section results, listed for orientation:
PLRAASPFR [_PLR(Methyl (R))AASPFR_] : 351.73
SGGRGVSVSSAR [_SGGR(Methyl (R))GVSVSSAR_] : 362.59
GGSGGRGVSVSSAR [_GGSGGR(Methyl (R))GVSVSSAR_] : 384.84
FRSGNYR [_FR(Methyl (R))SGNYR_] : 333.09
RGATPPAPPR [_R(Methyl (R))GATPPAPPR_] : 338.68

Consider the additional substance presented here.
Ask | # return recorded collision cross section for input PRGVISTPVIR [_PR(Methyl (R))GVISTPVIR_]
Reply | 373.92
